Lab note: IC50 readings collected with UniProt:P00533 for the following molecules.
Sequence (P00533 whole entry): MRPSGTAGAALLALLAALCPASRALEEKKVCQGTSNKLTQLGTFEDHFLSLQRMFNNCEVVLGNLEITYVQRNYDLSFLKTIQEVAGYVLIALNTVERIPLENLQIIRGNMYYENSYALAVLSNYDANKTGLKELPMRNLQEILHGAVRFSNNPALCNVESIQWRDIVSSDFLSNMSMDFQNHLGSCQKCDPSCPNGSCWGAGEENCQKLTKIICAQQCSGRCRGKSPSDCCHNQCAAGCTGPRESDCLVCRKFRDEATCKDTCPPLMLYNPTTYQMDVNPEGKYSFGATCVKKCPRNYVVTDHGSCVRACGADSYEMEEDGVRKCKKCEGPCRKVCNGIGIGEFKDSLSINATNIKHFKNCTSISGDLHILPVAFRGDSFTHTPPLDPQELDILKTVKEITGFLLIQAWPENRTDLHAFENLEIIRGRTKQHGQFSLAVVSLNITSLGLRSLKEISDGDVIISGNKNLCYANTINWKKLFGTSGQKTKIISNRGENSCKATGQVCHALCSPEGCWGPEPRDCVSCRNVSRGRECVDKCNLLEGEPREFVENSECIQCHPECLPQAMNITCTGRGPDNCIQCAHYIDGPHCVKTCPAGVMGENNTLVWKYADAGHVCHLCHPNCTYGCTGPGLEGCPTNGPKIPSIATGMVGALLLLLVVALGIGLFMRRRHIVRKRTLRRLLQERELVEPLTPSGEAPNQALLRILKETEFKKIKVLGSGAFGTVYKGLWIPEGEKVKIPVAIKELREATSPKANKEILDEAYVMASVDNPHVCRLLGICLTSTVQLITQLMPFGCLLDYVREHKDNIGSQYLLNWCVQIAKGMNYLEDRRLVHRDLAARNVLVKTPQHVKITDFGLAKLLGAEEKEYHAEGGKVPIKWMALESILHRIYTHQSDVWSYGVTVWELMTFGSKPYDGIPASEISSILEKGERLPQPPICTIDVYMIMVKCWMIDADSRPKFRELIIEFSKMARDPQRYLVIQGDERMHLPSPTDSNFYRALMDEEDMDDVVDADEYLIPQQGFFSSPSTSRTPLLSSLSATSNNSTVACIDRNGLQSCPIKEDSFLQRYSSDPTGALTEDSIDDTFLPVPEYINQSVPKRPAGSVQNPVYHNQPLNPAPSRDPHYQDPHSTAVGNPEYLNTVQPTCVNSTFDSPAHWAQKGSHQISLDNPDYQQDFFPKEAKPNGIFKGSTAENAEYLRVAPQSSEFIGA
Note: unit nM is implicit; provide only the numeric part.

Some molecules with recorded IC50:
{"smiles_string": "C=CC(=O)Nc1cccc(Oc2nc(Nc3ccc(N4CCN(C(C)=O)CC4)cc3OC)ncc2SC)c1", "output_unit": "nM", "measurement": 87.5}
{"smiles_string": "C=CC(=O)Nc1cccc(Oc2nc(Nc3ccc(N4CCN(C)CC4)cc3OC)ncc2SC)c1", "output_unit": "nM", "measurement": 272}
{"smiles_string": "C=CC(=O)Nc1cccc(Oc2nc(Nc3ccc(N4CCN(C(=O)C(C)(C)C)CC4)cc3OC)ncc2SC)c1", "output_unit": "nM", "measurement": 410}

Give recorded IC50. `C=CC(=O)Nc1cccc(Oc2nc(Nc3ccc(N4CCCN(C(C)=O)CC4)cc3OC)ncc2SC)c1` 389

Give recorded IC50. `C=CC(=O)Nc1cccc(Oc2nc(Nc3ccc(N4CCN(C(=O)CC)CC4)cc3OC)ncc2SC)c1` 154

Give recorded IC50. `C=CC(=O)Nc1cccc(Oc2nc(Nc3ccc(N4CCN(C(C)=O)CC4)cc3OC(F)F)ncc2SC)c1` 38.8
